- Assayed system: Alpha-1D adrenergic receptor (Rattus norvegicus, UniProt P23944)
- Sequence (P23944 whole entry): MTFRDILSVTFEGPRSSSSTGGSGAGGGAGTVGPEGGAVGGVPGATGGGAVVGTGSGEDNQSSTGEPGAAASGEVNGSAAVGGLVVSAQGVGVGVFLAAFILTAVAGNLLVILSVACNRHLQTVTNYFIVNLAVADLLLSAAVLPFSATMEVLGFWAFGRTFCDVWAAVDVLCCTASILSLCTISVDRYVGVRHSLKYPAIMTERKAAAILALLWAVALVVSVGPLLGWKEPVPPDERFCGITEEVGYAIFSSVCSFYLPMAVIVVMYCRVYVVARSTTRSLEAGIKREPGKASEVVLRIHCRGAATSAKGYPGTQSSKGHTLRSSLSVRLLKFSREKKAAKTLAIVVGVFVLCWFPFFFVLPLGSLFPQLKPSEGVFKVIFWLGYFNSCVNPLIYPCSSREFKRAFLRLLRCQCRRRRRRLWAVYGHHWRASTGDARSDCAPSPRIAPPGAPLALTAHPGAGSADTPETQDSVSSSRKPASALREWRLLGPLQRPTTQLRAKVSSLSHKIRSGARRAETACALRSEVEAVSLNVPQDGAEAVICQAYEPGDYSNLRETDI
- Assay: Antagonist activity at adrenergic Alpha-1D receptor in rat aorta
- Assay type: functional, tissue-based
- Measurement context: read-out: pA2 (converted)
// values below are reported Kb

> print(dat)
                                   compound  measured
1  COC(=O)CN1C(=O)N(CC(O)CN2CCN(c3ccccc3)CC2)C(c2ccccc2)(c2ccccc2)C1=O (stereo not given)   4370 nM

Lab note: need Kb for CCOC(=O)C(C)N1C(=O)N(CC(O)CN2CCN(c3ccccc3OC)CC2)C(c2ccccc2)(c2ccccc2)C1=O (stereo not given) on Alpha-1D adrenergic receptor (Rattus norvegicus, UniProt P23944), anyone have it?
70.8 nM

Form: Entry = CCOc1ccccc1N1CCN(CC(O)CN2C(=O)N(C)C(=O)C2(c2ccccc2)c2ccccc2)CC1 (stereo not given) | System = Alpha-1D adrenergic receptor (Rattus norvegicus, UniProt P23944) | Kb = ____
195 nM

Give Kb (Alpha-1D adrenergic receptor (Rattus norvegicus, UniProt P23944)) of the following compound: COc1ccccc1N1CCN(CC(O)CN2C(=O)N(C)C(=O)C2(c2ccccc2)c2ccccc2)CC1 (stereo not given)
141 nM

Record CN1C(=O)N(CC(O)CN2CCN(c3ccccc3F)CC2)C(c2ccccc2)(c2ccccc2)C1=O (stereo not given) : what is its Kb with Alpha-1D adrenergic receptor (Rattus norvegicus, UniProt P23944)?
245 nM

Which Kb is reported with Alpha-1D adrenergic receptor (Rattus norvegicus, UniProt P23944) for this entry: CCOc1ccccc1N1CCN(CC(O)CN2C(=O)N(C(C)C(=O)OC)C(=O)C2(c2ccccc2)c2ccccc2)CC1 (stereo not given) ?
269 nM

* * *

- Assayed system: Alpha-1D adrenergic receptor (Rattus norvegicus, UniProt P23944)
- Assay: Antagonist activity at adrenergic Alpha-1D receptor in rat aorta
- Type: functional, tissue-based
- Measurement context: read-out: pA2 (converted)
Metric: Kb (nM)
API: value field is a number in nM; no unit string.

Examples from the recorded data:
> print(dat)
                                   compound                            assayed.system  display.unit  measured
1  CCOC(=O)CN1C(=O)N(CC(O)CN2CCN(c3ccccc3OC)CC2)C(c2ccccc2)(c2ccccc2)C1=O (centres undefined)  Alpha-1D adrenergic receptor (Rattus norvegicus, UniProt P23944)            nM      1350
2  COc1ccccc1N1CCN(CC(O)CN2C(=O)NC(=O)C2(c2ccccc2)c2ccccc2)CC1 (centres undefined)  Alpha-1D adrenergic receptor (Rattus norvegicus, UniProt P23944)            nM       112
3  COC(=O)C(C)N1C(=O)N(CC(O)CN2CCN(c3ccccc3OC)CC2)C(c2ccccc2)(c2ccccc2)C1=O (centres undefined)  Alpha-1D adrenergic receptor (Rattus norvegicus, UniProt P23944)            nM       347

Which value of Kb has been reported for COC(=O)CN1C(=O)N(CC(O)CN2CCN(c3ccccc3OC)CC2)C(c2ccccc2)(c2ccccc2)C1=O (centres undefined) in the records?
295
